- Test system: rat osteocalcin promoter
- Assay details: OCN (osteocalcin) Promoter Assay
- Assay type: cell-based
- Conditions: RG-15 (ROS17/2.8) cells, luciferase reporter, 48 h treatment
Assignment: determine reported EC50 for the given molecules.
Give bare numbers, in nM.

Before answering, review these 4 worked examples.
Input: Give recorded EC50 with rat osteocalcin promoter for the following molecule: `CCC(CC)(c1ccc(OCC(=O)C(C)(C)C)c(C)c1)c1nc2ccc(C(=O)N(C)C)cc2o1`
Output: 1640

Input: API: value(readout= EC50, system= rat osteocalcin promoter, query= `CCC(CC)(c1ccc(OCC(=O)C(C)(C)C)c(C)c1)c1nc2cc(C(=O)O)ccc2o1` )
Output: 8

Input: Please tell me: EC50 of `CCC(CC)(c1ccc(OCC(=O)C(C)(C)C)c(C)c1)c1nc2ccc(C(N)=O)cc2o1` , system rat osteocalcin promoter?
Output: 289

Input: GET /values?readout=EC50&system=rat osteocalcin promoter&item= `CCC(CC)(c1ccc(OCC(=O)C(C)(C)C)c(C)c1)c1nc2ccc(C(=O)O)cc2o1`
Output: 376

Further cases:
Input: Can you look up EC50 on rat osteocalcin promoter for `CCC(CC)(c1ccc(OCC(=O)C(C)(C)C)c(C)c1)c1nc2ccc(C(=O)NCC(=O)O)cc2o1` ?
Output: 1170
